Cited source: the supplement of paper PMC10567573

Assay: protein stability index of a GFP-peptide fusion (GPS, HEK-293T) (PSI 1-6); higher = more stable;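 also: 24-mer peptide tiles fused after GFP, lentivirally expressed, FACS-sorted into six equal bins by GFP/DsRed ratio, decoded by Illumina sequencing, PSI is the read-weighted mean bin number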
Conditions: treatment: DMSO; c terminus: a fixed tail appended
Parameter threshold = 3. Response is yes (1) when protein stability index meets or exceeds it, else no (0).

q: Item LWRYRTITFSGRPSRVHASEVESA [FBXO39] with protein stability index of 3 or above?
a: no (0)

q: Item AEFMRNFQKGQVTRDGFKLVMASL [HMOX1] with protein stability index of 3 or above?
a: no (0)

q: Item RLPRQNSDGGQKNKPREHIIDCGD [WSB1] with protein stability index of 3 or above?
a: yes (1)

q: Item FRRTDGRCLIWGRKPKVIECSYTS [DHCR7] with protein stability index of 3 or above?
a: no (0)

q: Item FLEEAHEWNQKRARKAMRNGISPI [N4BP2L1] with protein stability index of 3 or above?
a: yes (1)

q: Item HEEEPLGTAGPLALARDLLSETAD [GMPPB] with protein stability index of 3 or above?
a: yes (1)

q: Item KGDKCKFSHDLTLERKCEKRSVYI [ZC3H15] with protein stability index of 3 or above?
a: no (0)

q: Item ALSSFREESRFCDAHLVLDGEEIP [GAN] with protein stability index of 3 or above?
a: yes (1)

q: Item QDDISSSYTTTTTITAPPSRVLQN [SCD] with protein stability index of 3 or above?
a: yes (1)

q: Item WAPASEGLKPGPEDGPGKEEAPEL [SERTAD1] with protein stability index of 3 or above?
a: yes (1)

q: Item DFDGKLKDIAGEFKEQLQALIPYV [ATL3] with protein stability index of 3 or above?
a: no (0)

q: Item IQSKDGKSPLHMTAVHGRFTRSQT [ANKRD44] with protein stability index of 3 or above?
a: yes (1)

q: Item PELLVGDTQYGSSVDIWAIGCVFA [CDKL4] with protein stability index of 3 or above?
a: no (0)

q: Item NRLASLQQENKVLKIELETYKLKC [CCDC6] with protein stability index of 3 or above?
a: no (0)

q: Item SGPMQAALQAAAHASVDIKDVLDF [SMG5] with protein stability index of 3 or above?
a: yes (1)

q: Item LEVPAGSRLNLTGLGYFSCHSHTV [CCDC3] with protein stability index of 3 or above?
a: no (0)

q: Item IKEEENSEEELAAATTSKEQEPIG [MYBL2] with protein stability index of 3 or above?
a: yes (1)

q: Item ALHLAARNGHLATVKLLVEEKADV [RIPK4] with protein stability index of 3 or above?
a: no (0)

q: Item RQIQEEEDEKQRLQNEVRQLTEKL [SSNA1] with protein stability index of 3 or above?
a: yes (1)

q: Item KTSLAPYVKVFEHFLENLDKSRKG [PRIM1] with protein stability index of 3 or above?
a: no (0)

q: Item PSYKVKVTGLNPKTKYILLMDIVP [TBX5] with protein stability index of 3 or above?
a: no (0)

q: Item SNVGTAISKKFGDMSYSIRHSISM [TPD52L1] with protein stability index of 3 or above?
a: no (0)
